Attribution: paper PMC4756849

molecular target: Trypanosoma brucei REL1 (Trypanosoma brucei brucei); construct: made in house; host or cells: Escherichia coli BL21 (DE3), polycistronic pET-21d construct; assay: biochemical; format: biochemical; conditions: dose-response curves, HTS/optimized assay conditions, 10 μM ATP; influenced by unknown percentage of active protein; read-out: IC50
Sequence (P86926 51-469): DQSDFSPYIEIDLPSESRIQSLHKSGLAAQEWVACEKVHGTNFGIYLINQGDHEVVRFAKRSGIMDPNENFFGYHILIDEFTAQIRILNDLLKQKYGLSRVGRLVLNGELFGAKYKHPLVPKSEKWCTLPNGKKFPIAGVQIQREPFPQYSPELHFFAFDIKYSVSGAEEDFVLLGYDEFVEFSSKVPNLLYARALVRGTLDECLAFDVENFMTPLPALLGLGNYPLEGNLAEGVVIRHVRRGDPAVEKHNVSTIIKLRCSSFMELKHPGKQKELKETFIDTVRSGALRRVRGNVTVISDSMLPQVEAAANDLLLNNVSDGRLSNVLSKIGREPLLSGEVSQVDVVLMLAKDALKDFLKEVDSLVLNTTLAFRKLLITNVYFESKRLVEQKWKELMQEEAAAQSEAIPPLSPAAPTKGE
Assay Endpoint: IC50 (nM)

1. O=C(O)c1cc(O)c(O)c(OC(=O)c2cc(O)c(O)c(O)c2CNc2ccc3cc(S(=O)(=O)O)cc(S(=O)(=O)O)c3c2)c1 [NSC42067] = 1400
2. N#C/C(=C\c1ccc(O)c(O)c1)C(=O)NCCCNC(=O)/C(C#N)=C/c1ccc(O)c(O)c1 [Tyrphostin AG 537] = 250
3. O=C(Nc1cccc(C(=O)Nc2ccc(S(=O)(=O)[O-])c3cc(S(=O)(=O)[O-])cc(S(=O)(=O)[O-])c23)c1)Nc1cccc(C(=O)Nc2ccc(S(=O)(=O)[O-])c3cc(S(=O)(=O)[O-])cc(S(=O)(=O)[O-])c23)c1.[Na+].[Na+].[Na+].[Na+].[Na+].[Na+] [NF 023 hydrate] = 1950
4. OC[C@H]1O[C@H]([S-])[C@H](O)[C@@H](O)[C@@H]1O.[Au+] [Aurothioglucose hydrate] = 12100

====

biological target: Trypanosoma brucei REL1 (Trypanosoma brucei brucei); construct: made in house; host or cells: Escherichia coli BL21 (DE3), polycistronic pET-21d construct; assay: biochemical; type: biochemical; details: dose-response curves, HTS/optimized assay conditions, 10 μM ATP; influenced by unknown percentage of active protein
Structures can show the parent of a compound that is named as a salt.
Assay Endpoint: IC50 (μM)

1. N#C/C(=C\c1ccc(O)c(O)c1)C(=O)NCCCNC(=O)/C(C#N)=C/c1ccc(O)c(O)c1 [Tyrphostin AG 537] = low μM range
2. O=C(Nc1cccc(C(=O)Nc2ccc(S(=O)(=O)[O-])c3cc(S(=O)(=O)[O-])cc(S(=O)(=O)[O-])c23)c1)Nc1cccc(C(=O)Nc2ccc(S(=O)(=O)[O-])c3cc(S(=O)(=O)[O-])cc(S(=O)(=O)[O-])c23)c1.[Na+].[Na+].[Na+].[Na+].[Na+].[Na+] [NF 023 hydrate] = low μM range
3. Cc1ccc(C(=O)Nc2ccc(S(=O)(=O)O)c3cc(S(=O)(=O)O)cc(S(=O)(=O)O)c23)cc1NC(=O)c1cccc(NC(=O)Nc2cccc(C(=O)Nc3cc(C(=O)Nc4ccc(S(=O)(=O)O)c5cc(S(=O)(=O)O)cc(S(=O)(=O)O)c45)ccc3C)c2)c1 [Suramin sodium salt] = low μM range
4. O=c1c(O)c(-c2cc(O)c(O)c(O)c2)oc2cc(O)cc(O)c12 [Myricetin] = low μM range
5. OC[C@H]1O[C@H]([S-])[C@H](O)[C@@H](O)[C@@H]1O.[Au+] [Aurothioglucose hydrate] = low μM range
